Origin of measurements: paper PMC12068666

System: HepG2 cells
Assay Details: MTT assay, antiproliferative activity, HepG2
Assay type: cell-based, human
Test Conditions: Homo sapiens, HepG2; MTT, 24 h treatment, mean ± SD
Property Measured: IC50 (µM)

Compound	Measure Unit	IC50
O=c1n(-c2nc(-c3ccc(Br)cc3)cs2)ncc2cccn12	µM	51.9
COc1ccc(-c2csc(-n3ncc4cccn4c3=O)n2)cc1OC	µM	17.2
O=c1n(-c2nc(-c3ccc(C(F)(F)F)cc3)cs2)ncc2cccn12	µM	52.8

A: O=c1n(-c2nc(-c3ccc(Cl)cc3Cl)cs2)ncc2cccn12
B: O=c1n(-c2nc(-c3ccc(F)c(Cl)c3)cs2)ncc2cccn12
C: O=c1n(-c2nc(-c3ccc(F)cc3)cs2)ncc2cccn12
D: O=c1n(-c2nc(-c3ccc(F)c(F)c3)cs2)ncc2cccn12
hey, can you rank those compounds up there by IC50? biggest number first please Write out the labels following the order that was asked for.
C, D, B, A
